# Test system: H1 or H9 human embryonic stem cells
# assay.comment: Activin A bioassay: differentiation of human embryonic stem cells to definitive endoderm, cell number and SOX17 intensity by high content analysis (96-well, four days)
# Format: cell-based
# details: supernatant concentration 10x, assay dilution 1:20; control = R&D Sys Activin A 100 ng/ml on same plate
observable: Sox 17 Intensity % of control (%)
Reply with just the number (in %).

(Q) Entry ACTN49: activin A variant peptide, SEQ ID 50 (protein) GLECDGKVNLCCKKQDFVSFKDIGWNDWIIAPSGYHANRCDGLCPSHIAGTSGSSLSFHSTVINHYRMRGHSPFSDMGSCCVPTKLRPMSMLYYDDGQNIIKKDIQNMIVEECGCS : reported Sox 17 Intensity % of control = ?
(A) 11.3

(Q) Item: ACTN10: activin A variant peptide, SEQ ID 11 (protein) GLECDGKVNYCCKKQDFVSFKDIGWNDWIIAPSGYHANRCSGLCPSHIAGTSGSSLSFHSTVINHYRMRGHSPFAQMGSCCIPTKLRPMSMLYYDDGQNIIKKDIQNMIVEECGCS
(A) 4.2

(Q) Item: ACTN43: activin A variant peptide, SEQ ID 44 (protein) GLECDGKVNYCCKKQDFVSFKDIGWNDWIIAPSGYHANRCDGKCPSHIAGTSGSSLSFHSTVINHYRMRGHSPFSDMGACCVPTKLRPMSMLYYDDGQNIIKKDIQNMIVEECGCS
(A) 2.3
